The reported numbers originate from patent US6855715B1.

quantity: melting point

>>> reading("COc1ccc(C(=O)N[C@@H](CNC(=O)c2ccc(C(C)(C)C)cc2)c2ccccc2)cc1")
"171 to 175 °C"
>>> reading("COc1ccc(C(=O)N[C@@H](CNC(=O)C2CCN(C3CCCCC3)CC2)c2ccccc2)cc1")
"239 to 243 °C"
>>> reading("COc1ccc(C(=O)N[C@@H](C(=O)N2CCN(CCC3CCCC3)CC2)c2ccccc2)cc1.Cl.O (hydrate or solvate)")
"190 to 192 °C"
>>> reading("CCN1CCC(C(=O)NC[C@H](NC(=O)c2ccc(OC)cc2)c2ccccc2)CC1")
"245 to 251 °C"
>>> reading("COc1ccc(C(=O)N[C@@H](CNC(=O)c2ccc(C)cc2)c2ccccc2)cc1")
"230 to 238 °C"
>>> reading("COc1ccc(C(=O)N[C@@H](CNC(=O)C2CCN(C3CCN(C)CC3)CC2)c2ccccc2)cc1")
"252 to 259 °C"
>>> reading("CCc1ccc(C(=O)NC[C@H](NC(=O)c2ccc(OC)cc2)c2ccccc2)cc1")
"222 to 229 °C"
>>> reading("COc1ccc(C(=O)N[C@@H](CNC(=O)c2ccc(C(C)C)cc2)c2ccccc2)cc1")
"239 to 244 °C"
>>> reading("COc1ccc(C(=O)N[C@@H](CNC(=O)C2CCN(C3CCCC3)CC2)c2ccccc2)cc1")
"253 to 257 °C"
>>> reading("COc1ccc(C(=O)N[C@@H](C(=O)N2CCN(CC3CCN(C(C)C)CC3)CC2)c2ccccc2)cc1.Cl")
"172 to 180 °C (dec.)"
